# target-or-system: glutathione S-transferase (GST)-fused full-length human Syk protein (Homo sapiens, UniProt P43405)
# Construct: (GST)-fused full-length human Syk protein; GST (glutathione S-transferase); purchased Carna Biosciences
# assay-info: Syk enzyme assay
# Type: biochemical
# test-settings: Syk enzyme assay, Test Example 1; read-out: IC50 of Syk-inhibitory activity
outcome-measure: IC50

In the examples that follow, each entry is paired with its recorded IC50.
1) CCCC[C@@H](Nc1nc(Nc2ccc3c(cnn3CC(F)F)c2)c(C(N)=O)cc1F)[C@H](C)N ... 10 to 50 nM
2) NC(=O)c1cc(F)c(N[C@@H]2CCCC[C@@H]2N)nc1Nc1cncc(-c2cc(Cl)ccc2F)c1 (relative stereo) ... < 10 nM
3) NC(=O)c1cc(F)c(N[C@@H]2CCCC[C@@H]2N)nc1Nc1cncc(-c2cc(F)ccc2F)c1 (relative stereo) ... < 10 nM
4) NCCNc1nc(Nc2cccc(C(=O)N3CCCCC3)c2)c(C(N)=O)cc1F ... 100 to 1000 nM
5) COc1cc(Nc2nc(N[C@@H](CN)CC(C)C)c(F)cc2C(N)=O)ccn1 ... < 10 nM

Prompt: Endpoint output: IC50 of COc1cncc(Nc2nc(N[C@@H]3CCCC[C@@H]3N)c(F)cc2C(N)=O)c1 . Value?
Response: < 10 nM

Prompt: Endpoint output: IC50 of NC(=O)c1cc(F)c(N[C@@H]2CCCC[C@@H]2N)nc1Nc1cnc2ccncc2c1 . Value?
Response: 10 to 50 nM

Prompt: Endpoint output: IC50 of NC(=O)c1cc(F)c(N[C@@H]2CCCC[C@@H]2N)nc1Nc1cncc(-c2cccc(N)c2)c1 (relative stereo) [Example 004-217] . Value?
Response: < 10 nM

Prompt: Endpoint output: IC50 of Cn1ccc(-c2cncc(Nc3nc(N[C@@H]4CCCC[C@@H]4N)c(F)cc3C(N)=O)c2)c1 (relative stereo) . Value?
Response: < 10 nM

Prompt: Endpoint output: IC50 of CCn1nc(C)c2ccc(Nc3nc(N[C@H](CC4CC4)[C@H](C)N)c(F)cc3C(N)=O)cc21 . Value?
Response: < 10 nM

Prompt: Endpoint output: IC50 of CC[C@H](N)[C@@H](C)Nc1nc(Nc2ccc3c(cnn3CC)c2)c(C(N)=O)cc1F . Value?
Response: < 10 nM

Prompt: Endpoint output: IC50 of NC(=O)c1cc(F)c(NC2CCCCC2N)nc1Nc1ccnc(-c2ccc3cnccc3c2)c1 (stereo not shown) . Value?
Response: < 10 nM

Prompt: Endpoint output: IC50 of C[C@H](N)[C@@H](C)Nc1nc(Nc2ccc3scnc3c2)c(C(N)=O)cc1F (racemic) . Value?
Response: < 10 nM

Prompt: Endpoint output: IC50 of CC[C@@H](Nc1nc(Nc2cncc(-c3cc(OC)ccc3F)c2)c(C(N)=O)cc1F)[C@H](C)N . Value?
Response: < 10 nM

Prompt: Endpoint output: IC50 of COc1cc(Nc2nc(NCc3ccc(N)cc3)c(F)cc2C(N)=O)cc(OC)c1 . Value?
Response: 100 to 1000 nM

Prompt: Endpoint output: IC50 of CCn1ncc2cc(Nc3nc(NC4CCCCC4N)c(F)cc3C(N)=O)ccc21 (stereo not shown) . Value?
Response: < 10 nM

Prompt: Endpoint output: IC50 of CC(C)C[C@H](CN)Nc1nc(Nc2ccnc(-c3ccoc3)c2)c(C(N)=O)cc1F . Value?
Response: < 10 nM

Prompt: Endpoint output: IC50 of NC(=O)c1cc(F)c(NC2CCCCC2N)nc1Nc1cnc(N2CCOCC2)c(-c2ccoc2)c1 (stereo not shown) . Value?
Response: 10 to 50 nM

Prompt: Endpoint output: IC50 of NC(=O)c1cc(F)c(NC[C@@H](N)c2ccccn2)nc1Nc1ccc2ncccc2c1 . Value?
Response: < 10 nM

Prompt: Endpoint output: IC50 of NC(=O)c1cc(F)c(NC2CCCCC2N)nc1Nc1cncc(NC(=O)c2ccc3c(c2)OCO3)c1 (stereo not shown) . Value?
Response: 10 to 50 nM

Prompt: Endpoint output: IC50 of NC(=O)c1cc(F)c(NC2CCCCC2N)nc1Nc1cncc(NC(=O)c2ccc3occc3c2)c1 (stereo not shown) . Value?
Response: 10 to 50 nM

Prompt: Endpoint output: IC50 of COc1cc(Nc2nc(N[C@H](C)[C@H](C)N)c(F)cc2C(N)=O)cc(OC)n1 (racemic) . Value?
Response: < 10 nM
